# assay.method.text: chemical genetic growth profiling, strain panel (AID 1159580);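 note: tested at 20 µM; growth read once vehicle control cultures reached saturation at 30 °C; 1 = growth at the plate median or of vehicle wells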
# condition.label: S. cerevisiae deletion strains, growth OD, locus YLR113W, strain HOG1, stronger effect = lower value
The campaign covered roughly 5,500 compounds. About 2,000 (36%) were called active. Another 18% or so got no clear call; they are omitted. This is one part of the list. Where a SMILES comes first, the peptide text is derived from it. The star is where a group is joined. For = O=C*
property: normalized growth

> print(dat)
                                    molecule  endpoint.result
 1  CCCCCCCCCCCC[C@H](C(=O)O)[C@@H](C)C(=O)O            0.903
 2                 Brc1ccc2[nH]c3c(c2c1)CCC3             0.44
 3  O=S(=O)(c1ccc(Cl)cc1)N(Cc1cccnc1)Cc1ccc(Cl)cc1Cl             0.54
 4                 CCCCC[C@H](CC(=O)O)C(=O)O            0.945
 5       Cc1csc(NC(=O)Nc2ccc(C(F)(F)F)cc2)c1            0.803
 6    Clc1ccccc1C(c1ccccc1)(c1ccccc1)n1ccnc1            0.156
 7  CCCCCCCCCCCCCCC(C(=O)O)C(O)(CC(=O)OC)C(=O)O (stereo unspecified)             1.02
 8        Cc1nc(-c2ccccn2)nc(SCc2ccccc2)c1Cl            0.802
 9    O=C(c1ccc(Cl)cc1)N(Cc1ccccc1)Cc1cccnc1            0.884
10  CC(C)(C)C(=O)N(Cc1cccnc1)Cc1ccc(Cl)cc1Cl             1.02
11  CSCCC(NC=O)C(=O)NC(Cc1ccccc1)C(=O)O (stereo not drawn) (For-Met-Phe-OH; configuration not given here)            0.978

---

# assay.method.text: chemical genetic growth profiling, strain panel (AID 1159580)
# condition.label: S. cerevisiae deletion strains, growth OD, locus YOL012C, strain htz1
The whole screen tested about 5,500 compounds, of which about 2,000 (36%) were called active. About 18% were inconclusive and are not listed. The list shows a part of the results.
property: normalized growth

compound	property	endpoint.result
C#C[C@]1(O)CCC2C3CCC4=C(CCC(=O)C4)C3CC[C@@]21C (stereo not given in full)	normalized growth	1.9
CC(C)(C#N)O[C@@H]1O[C@H](CO)[C@@H](O)[C@H](O)[C@H]1O	normalized growth	0.871
CCC(C)C(=O)O[C@H]1[C@H](O)C2C(CN3CC(C)CCC3[C@@]2(C)O)C2C[C@]34O[C@]5(O)C(OC(=O)C(C)(O)CC)CC[C@@]3(C)C5C(OC(C)=O)[C@@H](OC(C)=O)C4[C@@]21O (stereo not given in full)	normalized growth	0.797
C#C[C@]1(O)CCC2C3CCC4=CC(=O)CC[C@@H]4C3CC[C@@]21C (stereo not given in full)	normalized growth	1.68
CCCCCCCCCCCC[C@H](C(=O)O)[C@@H](C)C(=O)O	normalized growth	1.2

---

# assay.method.text: chemical genetic growth profiling, strain panel (AID 1159580);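 note: tested at 20 µM; growth read once vehicle control cultures reached saturation at 30 °C; 1 = growth at the plate median or of vehicle wells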
# condition.label: S. cerevisiae deletion strains, growth OD, locus YKR001C, strain vps1
In all, about 5,500 compounds went through this assay and about 2,000 (36%) were called active. Not shown: some 18% with an inconclusive outcome. No stated cut-off is given here; in the data, active means normalized growth mostly below about 0.91 (no sharp cut-off); inconclusive means no clear call, values can overlap the other calls; inactive means mostly above about 0.92. The list shows a part of the results.
Possible outcomes: 1.0 (active), 0.0 (inactive)

> print(dat)
                                   compound  assigned.category
1  CC(C)(Sc1cc(C(C)(C)C)c(O)c(C(C)(C)C)c1)Sc1cc(C(C)(C)C)c(O)c(C(C)(C)C)c1                0.0
2  CC1(C)CC[C@]2(C)CC[C@]3(C)C(=CCC4[C@@]5(C)CC[C@H](O)C(C)(C)C5CC[C@]43C)C2C1 (stereo partly drawn)                0.0
3  C[C@H]1[C@H](C)CC[C@]2(CO)CC[C@]3(C)C(=CCC4[C@@]5(C)CC[C@H](O)C(C)(C)C5CC[C@]43C)[C@H]12 (stereo partly drawn)                0.0
4     Nc1ccc(S(=O)(=O)Nc2ccnn2-c2ccccc2)cc1                0.0
5                   O=c1[nH]cc(F)c(=O)[nH]1                1.0
6          Cc1cc(C(C)(C)C)c(O)c(C(C)(C)C)c1                0.0
7  CC1(C)CC[C@]2(C(=O)O)CC[C@]3(C)C(=CCC4[C@@]5(C)CC[C@@H](O)C(C)(C)C5CC[C@]43C)C2C1 (stereo partly drawn)                0.0
8  N#CC(O[C@@H]1O[C@H](CO[C@@H]2O[C@H](CO)[C@@H](O)[C@H](O)[C@H]2O)[C@@H](O)[C@H](O)[C@H]1O)c1ccccc1 (stereo partly drawn)                0.0

---

Catalogue of normalized growth readings, one per entry.
# assay.method.text: chemical genetic growth profiling, strain panel (AID 1159580);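 note: tested at 20 µM; growth read once vehicle control cultures reached saturation at 30 °C; 1 = growth at the plate median or of vehicle wells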
# condition.label: S. cerevisiae deletion strains, growth OD, locus YGR135W, strain pre9, stronger effect = lower value
In all, about 5,500 compounds went through this assay and about 2,000 (36%) were called active. Not shown: some 18% with an inconclusive outcome. The list shows a part of the results. Where a SMILES comes first, the peptide text is derived from it. The star is where a group is joined. For = O=C*
property: normalized growth

> print(dat)
                                    molecule           property  endpoint.result
 1          CCOP(=S)(OCC)Oc1nc(Cl)c(Cl)cc1Cl  normalized growth            0.986
 2  C#C[C@]1(O)CCC2C3CCC4=C(CCC(=O)C4)C3CC[C@@]21C (stereo partly specified)  normalized growth            0.981
 3  Cc1ccc(-c2cc(C(F)(F)F)nn2-c2ccc(S(N)(=O)=O)cc2)cc1  normalized growth             1.02
 4                NC(N)=N/N=C/c1c(Cl)cccc1Cl  normalized growth             1.03
 5          CCOP(=S)(OCC)Oc1cc(C)nc(C(C)C)n1  normalized growth            0.995
 6  C[C@]12CCC(=O)C=C1CCC1C2[C@@H](O)C[C@@]2(C)C1CC[C@]2(O)C(=O)CO (stereo partly specified)  normalized growth             1.01
 7       Nc1ccc(S(=O)(=O)Nc2cnc3ccccc3n2)cc1  normalized growth            0.992
 8                           O=c1cc(CO)occ1O  normalized growth             1.05
 9        NCCC(=O)N[C@@H](Cc1cnc[nH]1)C(=O)O  normalized growth            0.977
10  CSCCC(NC=O)C(=O)NC(Cc1ccccc1)C(=O)O (stereo not drawn) (For-Met-Phe-OH; configuration not given here)  normalized growth             1.02
11                     Nc1c2ccccc2nc2ccccc12  normalized growth            0.709

---

# assay.method.text: chemical genetic growth profiling, strain panel (AID 1159580);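 note: tested at 20 µM; growth read once vehicle control cultures reached saturation at 30 °C; 1 = growth at the plate median or of vehicle wells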
# condition.label: S. cerevisiae deletion strains, growth OD, locus YIL125W, strain kgd1, stronger effect = lower value
The whole screen tested about 5,500 compounds, of which about 2,000 (36%) were called active. About 18% were inconclusive and are not listed. The list shows a part of the results.
The reader will find reported normalized growth values listed item by item below.
property: normalized growth

molecule	property	endpoint.result
CC(C)(Sc1cc(C(C)(C)C)c(O)c(C(C)(C)C)c1)Sc1cc(C(C)(C)C)c(O)c(C(C)(C)C)c1	normalized growth	1.02 (inactive)
CC(=O)/C=C\[C@@H]1[C@@]2(C)CCCC(C)(C)C2CC[C@@]1(C)O (stereo partly specified)	normalized growth	0.991 (inactive)
CCOC(=O)OC(C)OC(=O)C1N2C(=O)C(NC(=O)[C@H](N)c3ccccc3)C2SC1(C)C (stereo partly specified)	normalized growth	0.995 (inactive)
C/C=C(/C)C(=O)OC1CCC2(C)C3CCC4C5(O)CC(O)C6(O)C(CN7CC(C)CCC7C6(C)O)C5(O)CC42OC13O (stereo unspecified)	normalized growth	0.976 (inactive)
C#C[C@]1(O)CCC2C3CCC4=C(CCC(=O)C4)C3CC[C@@]21C (stereo partly specified)	normalized growth	1 (inactive)
C[C@@H]1CC[C@]2(C(=O)O)CC[C@]3(C)C(=CCC4[C@@]5(C)CC[C@H](O)C(C)(C)C5CC[C@]43C)C2[C@H]1C (stereo partly specified)	normalized growth	1 (inactive)
C[C@@H]1OC(O[C@H]2[C@H](OC(=O)[C@]34CCC(C)(C)CC3C3=CCC5[C@@]6(C)CC[C@H](OC7O[C@@H](C)[C@H](O[C@@H]8OC[C@@H](O)[C@H](O)[C@H]8O)[C@@H](O)[C@H]7O)C(C)(C)C6CC[C@@]5(C)[C@]3(C)CC4O)OC[C@H](O)[C@H]2O)[C@H](O)[C@H](O)[C@H]1O[C@@H]1O[C@H](CO)[C@@H](O)[C@H](O)[C@H]1O (stereo partly specified)	normalized growth	0.958 (inactive)
COC(=O)/C(C)=C\CC12OC(C)(C)C3CC(C=C4C(=O)c5c(O)c6c(c(CCC(C)(C)Cl)c5OC431)OC1(C)CCC(=C(C)C)C6C1)C2=O (stereo unspecified)	normalized growth	0.985 (inactive)
C/C=C(/C)C(=O)O[C@H]1CC[C@@]2(C)[C@@H]3CC[C@H]4[C@]5(O)C[C@H](O)[C@@]6(O)[C@@H](CN7C[C@@H](C)CC[C@H]7[C@@]6(C)O)[C@]5(O)C[C@@]42O[C@]13O	normalized growth	1 (inactive)
CC(C)=CCCC1(C)C=Cc2c(O)c3c(c(CC=C(C)C)c2O1)OC12C(=CCCC1C(C)(C)O[C@@]2(C/C=C(\C)C(=O)O)C(=O)O)C3=O (stereo partly specified)	normalized growth	0.961 (inactive)
C/C=C(/C)C(=O)O[C@@H]1[C@H](OC(C)=O)[C@@]2(CO)C(CC1(C)C)C1=CCC3[C@@]4(C)CC[C@H](O[C@@H]5O[C@H](C(=O)O)[C@@H](O[C@@H]6O[C@H](CO)[C@@H](O)[C@H](O)[C@H]6O)[C@H](O)[C@H]5O[C@@H]5O[C@H](CO)[C@@H](O)[C@H](O)[C@H]5O)[C@](C)(CO)C4CC[C@@]3(C)[C@]1(C)C[C@H]2O (stereo partly specified)	normalized growth	1.02 (inactive)
